Data origin: ChEMBL document CHEMBL1128117

# key: entry, value: IC50
# subject-of-test: Angiotensin II receptor (Homo sapiens, UniProt P30556+P50052)
# assay-comment: Inhibitory activity against Angiotensin II receptor
# Assay type: protein assay
Give your result in µM as a bare value.

Query block: # query: IC50 | item CCCCc1nc(Cl)c(C=O)n1Cc1ccc2c(c1)C1c3ccccc3C2C(C(=O)O)C1C(=O)O (single isomer, unassigned) | system: Angiotensin II receptor (Homo sapiens, UniProt P30556+P50052)
Result block: 0.32

====

# subject-of-test: Angiotensin II receptor (Homo sapiens, UniProt P30556+P50052)
# assay-comment: Inhibitory activity against Angiotensin II receptor
# Format: protein assay
# key: entry, value: IC50
Give your result in µM as a bare value.

Take a look at these entries with their results.
[
  {
    "compound": "CCCCc1nc(Cl)c(C=O)n1Cc1ccc2c(c1)C1c3ccccc3C2C(c2nn[nH]n2)C1c1nn[nH]n1 (centres undefined)",
    "IC50 [µM]": 0.09
  },
  {
    "compound": "CCCCc1nc(Cl)c(C=O)n1Cc1ccc2c(c1)C1c3ccccc3C2C(C(=O)O)C1C(=O)O (stereo in doubt; 3)",
    "IC50 [µM]": 1.1
  },
  {
    "compound": "CCCCc1nc(Cl)c(C=O)n1Cc1ccc2c(c1)C1c3ccccc3C2C(C(=O)O)C1C(=O)O (stereo in doubt)",
    "IC50 [µM]": 1.1
  }
]

Query block: Request the reported IC50 associated with CCCCc1nc(Cl)c(C=O)n1Cc1ccc2c(c1)C(C(=O)O)c1ccccc1-2 (centres undefined)
Result block: 3.6
